Provide the recorded CLint scaled at 1 µM for the entries that follow.
test: Liver microsome metabolic stability in vitro, beagle dog; format: in vitro ADME; conditions: beagle dog liver microsomes
Numbers only, in mL/min/kg.

C[C@]12CC[C@H]3[C@@H](CCC4=CC(=O)CC[C@@]43C)[C@@H]1CC[C@@H]2O    81

Consider the record given below.
Field request: CLint scaled at 1 µM | item: `CC1(C)CCC(CN2CCN(c3ccc(C(=O)NS(=O)(=O)c4cc([N+](=O)[O-])c(NCC5CCOCC5)c5[nH]cnc45)c(Oc4cnc5[nH]ccc5c4)c3)CC2)=C(c2ccc(Cl)cc2)C1`
26.8

====

biological target: Bcl-xL (Homo sapiens); construct: Human recombinant Bcl-xL (amino acid 1-209); purchased Reaction Biology Corporation (RBC) APT-11-442; host or cells: E. coli; experiment: HTRF competition test, Bcl-xL with FAM-Bad peptide (enzymology experiment); assay type: binding; details: 3 nM Bcl-xL and 40 nM FAM-Bad, read-out: IC50 (nM) for inhibition of Bcl-xL enzyme
Sequence (Q07817 1-209): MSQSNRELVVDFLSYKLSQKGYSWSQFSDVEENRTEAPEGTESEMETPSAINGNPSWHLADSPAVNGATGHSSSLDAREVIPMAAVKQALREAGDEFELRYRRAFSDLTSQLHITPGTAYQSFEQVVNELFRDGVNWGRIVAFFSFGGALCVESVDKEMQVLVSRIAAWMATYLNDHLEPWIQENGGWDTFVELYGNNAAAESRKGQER
Value Type: IC50 (nM)
Answers are plain numbers, in nM.

Known results for compounds:
CC1(C)CCC(CN2CC=C(c3ccc(C(=O)NS(=O)(=O)c4cc([N+](=O)[O-])c(NCC5CCOCC5)c5[nH]cnc45)c(Oc4ccc5[nH]ccc5c4)c3)CC2)=C(c2ccc(Cl)cc2)C1 [Compound 5]    504
CC1(C)CCC(CN2CCN(c3ccc(C(=O)NS(=O)(=O)c4cc([N+](=O)[O-])c(NCC5CCOCC5)c5[nH]cnc45)c(Oc4cnc5[nH]ccc5c4)c3)CC2)=C(c2ccc(Cl)cc2)C1 [Compound 2]    411
Cc1nc2c(S(=O)(=O)NC(=O)c3ccc(N4CCN(CC5=C(c6ccc(Cl)cc6)CC(C)(C)CC5)CC4)cc3Oc3cnc4[nH]ccc4c3)cc([N+](=O)[O-])c(NCC3CCOCC3)c2[nH]1 [Compound 9]    326
Cn1cnc2c(NCC3CCOCC3)c([N+](=O)[O-])cc(S(=O)(=O)NC(=O)c3ccc(N4CCN(CC5=C(c6ccc(Cl)cc6)CC(C)(C)CC5)CC4)cc3Oc3cnc4[nH]ccc4c3)c21 [Compound 6]    173

Consider the record given below.
Item: Cn1cnc2c(S(=O)(=O)NC(=O)c3ccc(N4CCN(CC5=C(c6ccc(Cl)cc6)CC(C)(C)CC5)CC4)cc3Oc3cnc4[nH]ccc4c3)cc([N+](=O)[O-])c(NCC3CCOCC3)c21 [Compound 8] Test system: Bcl-xL (Homo sapiens) Read-out: IC50 Value: ?
1110

====

assay: In vivo pharmacokinetic property evaluation in CD-1 mice (IV and PO); details: mouse, plasma, 1 mg/kg, IV, 1 mpk, read-out: Vdss
Value Type: Vd (L/kg)
Numbers only, in L/kg.

Field request: Vd | item: `CC1(C)CCC(CN2CCN(c3ccc(C(=O)NS(=O)(=O)c4cc([N+](=O)[O-])c(NCC5CCOCC5)c5[nH]cnc45)c(Oc4cnc5[nH]ccc5c4)c3)CC2)=C(c2ccc(Cl)cc2)C1`
0.834

====

target: Bcl-2 (Homo sapiens, UniProt P10415); construct: Human recombinant Bcl-2 (amino acid 1-207); purchased Reaction Biology Corporation (RBC) APT-11-441; host or cells: E. coli; test: HTRF competition test, Bcl-2 with FAM-BAK peptide (enzymology experiment); type: binding; settings: 4 nM Bcl-2 and 100 nM FAM-BAK, read-out: IC50 (nM) for inhibition of Bcl-2 enzyme
Sequence (P10415 1-207): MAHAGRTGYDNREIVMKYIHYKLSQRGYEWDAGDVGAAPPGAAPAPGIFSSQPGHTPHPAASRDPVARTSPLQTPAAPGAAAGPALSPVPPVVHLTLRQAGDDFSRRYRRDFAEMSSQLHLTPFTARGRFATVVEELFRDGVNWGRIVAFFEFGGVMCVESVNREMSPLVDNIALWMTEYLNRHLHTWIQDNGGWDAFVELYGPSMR
Value Type: IC50 (nM)
Answers are plain numbers, in nM.

Known results for compounds:
CC1(C)CCC(CN2CCN(c3ccc(C(=O)NS(=O)(=O)c4cc([N+](=O)[O-])c(NCC5CCOCC5)c5[nH]cnc45)c(Oc4cnc5[nH]ccc5c4)c3)CC2)=C(c2ccc(Cl)cc2)C1 [Compound 2]    1.5
Cc1nc2c(S(=O)(=O)NC(=O)c3ccc(N4CCN(CC5=C(c6ccc(Cl)cc6)CC(C)(C)CC5)CC4)cc3Oc3cnc4[nH]ccc4c3)cc([N+](=O)[O-])c(NCC3CCOCC3)c2[nH]1 [Compound 9]    3.6
Cn1cnc2c(S(=O)(=O)NC(=O)c3ccc(N4CCN(CC5=C(c6ccc(Cl)cc6)CC(C)(C)CC5)CC4)cc3Oc3cnc4[nH]ccc4c3)cc([N+](=O)[O-])c(NCC3CCOCC3)c21 [Compound 8]    1.3
CC1(C)CCC(CN2CC=C(c3ccc(C(=O)NS(=O)(=O)c4cc([N+](=O)[O-])c(NCC5CCOCC5)c5[nH]cnc45)c(Oc4ccc5[nH]ccc5c4)c3)CC2)=C(c2ccc(Cl)cc2)C1 [Compound 5]    2.6

Field request: IC50 | item: Cn1cnc2c(NCC3CCOCC3)c([N+](=O)[O-])cc(S(=O)(=O)NC(=O)c3ccc(N4CCN(CC5=C(c6ccc(Cl)cc6)CC(C)(C)CC5)CC4)cc3Oc3cnc4[nH]ccc4c3)c21 [Compound 6]
2.4

====

assay: In vivo pharmacokinetic property evaluation in CD-1 mice (IV and PO); details: mouse, plasma, 50 mg/kg, PO, 50 mpk
Value Type: AUC(0-t) (µM·h)
One number for each entry, in µM·h.

Field request: AUC(0-t) | item: `CC1(C)CCC(CN2CCN(c3ccc(C(=O)NS(=O)(=O)c4cc([N+](=O)[O-])c(NCC5CCOCC5)c5[nH]cnc45)c(Oc4cnc5[nH]ccc5c4)c3)CC2)=C(c2ccc(Cl)cc2)C1`
12.8

====

test: In vivo pharmacokinetic property evaluation in CD-1 mice (IV and PO); settings: mouse, plasma, 1 mg/kg, IV, 1 mpk
Value Type: half-life
Answer format reminder: number followed by unit.

Field request: half-life | item: CC1(C)CCC(CN2CCN(c3ccc(C(=O)NS(=O)(=O)c4cc([N+](=O)[O-])c(NCC5CCOCC5)c5[nH]cnc45)c(Oc4cnc5[nH]ccc5c4)c3)CC2)=C(c2ccc(Cl)cc2)C1 [Compound 2]
3.35 h

====

Assay: In vivo pharmacokinetic property evaluation in CD-1 mice (IV and PO)
Details: mouse, plasma, 50 mg/kg, PO, 50 mpk, read-out: MRT0-last
Method: The in vivo pharmacokinetic properties of compound 2 were evaluated in CD-1 mice by intravenous administration and oral administration. […] The concentration of compounds in plasma samples was analyzed using the LCMS/MS method and the following pharmacokinetic parameters were calculated using WinNonlin software (Phoenix™, version 6.1): IV: C0, Cl, Vd, T1/2, AUC0-last, MRT0-last, regression points; PO: Cmax, Tmax, T1/2, AUC0-last, MRT0-last, regression points. […]
Value Type: MRT last (h)
Numbers only, in h.

Field request: MRT last | item: CC1(C)CCC(CN2CCN(c3ccc(C(=O)NS(=O)(=O)c4cc([N+](=O)[O-])c(NCC5CCOCC5)c5[nH]cnc45)c(Oc4cnc5[nH]ccc5c4)c3)CC2)=C(c2ccc(Cl)cc2)C1 [Compound 2]
6.22

====

assay: In vivo pharmacokinetic property evaluation in CD-1 mice (IV and PO); details: mouse, plasma, 1 mg/kg, IV, 1 mpk, read-out: MRT0-last
Value Type: MRT last
Answer format reminder: number followed by unit.

Field request: MRT last | item: `CC1(C)CCC(CN2CCN(c3ccc(C(=O)NS(=O)(=O)c4cc([N+](=O)[O-])c(NCC5CCOCC5)c5[nH]cnc45)c(Oc4cnc5[nH]ccc5c4)c3)CC2)=C(c2ccc(Cl)cc2)C1`
1.21 h

====

experiment: Liver microsome metabolic stability in vitro, SD rat; type: in vitro ADME; settings: SD rat liver microsomes
Provide the recorded CLint scaled at 1 µM for the entries that follow.
Answers are plain numbers, in mL/min/kg.

Known results for compounds:
C[C@]12CC[C@H]3[C@@H](CCC4=CC(=O)CC[C@@]43C)[C@@H]1CC[C@@H]2O [Testosterone]    2180
CC1(C)CCC(CN2CCN(c3ccc(C(=O)NS(=O)(=O)c4cc([N+](=O)[O-])c(NCC5CCOCC5)c5[nH]cnc45)c(Oc4cnc5[nH]ccc5c4)c3)CC2)=C(c2ccc(Cl)cc2)C1 [Compound 2]    23.6

Consider the record given below.
Field request: CLint scaled at 1 µM | item: O=C(O)Cc1ccccc1Nc1c(Cl)cccc1Cl [Diclofenac]
174

====

experiment: In vivo pharmacokinetic property evaluation in CD-1 mice (IV and PO); conditions: mouse, plasma, 50 mg/kg, PO, 50 mpk
Value Type: Cmax (nM)
Answers are plain numbers, in nM.

Field request: Cmax | item: CC1(C)CCC(CN2CCN(c3ccc(C(=O)NS(=O)(=O)c4cc([N+](=O)[O-])c(NCC5CCOCC5)c5[nH]cnc45)c(Oc4cnc5[nH]ccc5c4)c3)CC2)=C(c2ccc(Cl)cc2)C1 [Compound 2]
1790

====

assay: Liver microsome metabolic stability in vitro, CD-1 mouse; format: in vitro ADME; settings: CD-1 mouse liver microsomes
Provide the recorded half-life at 1 µM for the entries that follow.

CC1(C)CCC(CN2CCN(c3ccc(C(=O)NS(=O)(=O)c4cc([N+](=O)[O-])c(NCC5CCOCC5)c5[nH]cnc45)c(Oc4cnc5[nH]ccc5c4)c3)CC2)=C(c2ccc(Cl)cc2)C1    1.15 h

Field request: half-life at 1 µM | item: `O=C(O)Cc1ccccc1Nc1c(Cl)cccc1Cl`
1.06 h
